test system: CAKI-1 renal; test: NCI tumour cell line growth inhibition, 48 h
quantity measured: TGI (µM)
Return type: number; implicit unit µM.

1. C/C(=N/NC(=S)N1CC2CCC(CC2)C1)c1cnccn1 ... 11.3
2. Cc1ccc(S(=O)(=O)ON2C(=O)c3c(N)c(C#N)c(-c4ccccc4)c(-c4ccccc4)c3C2=O)cc1 ... 29.8
3. Cc1cccc(N=C/C=C(\Cl)c2ccc3ccccc3c2)c1 ... 34.5

Attention now turns to another entry.
# input molecule: O=C1C=CC(=O)N1c1ccc(I)cc1 ; wanted: its TGI
34.3

----------
system: OVCAR-5 ovarian; assay: NCI tumour cell line growth inhibition, 48 h
quantity measured: TGI

Some solved entries appear below for comparison.
1) Cc1ccc(NC(=O)/C(=N\NC(N)=S)C(C#N)c2ccccc2C)cc1C (stereo unspecified) ... > 100 µM
2) Cc1ccc(S(=O)(=O)ON2C(=O)c3c(N)c(C#N)c(-c4ccccc4)c(-c4ccccc4)c3C2=O)cc1 ... 60 µM
3) O=C(Cc1ccccc1)NN1C(=O)C(Cl)C1c1cccc([N+](=O)[O-])c1 (stereo unspecified) ... > 100 µM

What is its TGI for OVCAR-5 ovarian? Entry: COC(=O)[C@]1(C)CCC[C@]2(C)[C@@H](CCC(=O)C(C)C)[C@]3(C=O)O[C@@H]3C[C@H]21
> 100 µM

Entry O=C(O)c1ccc(Oc2nc3ccccc3s2)cc1 , system OVCAR-5 ovarian: what TGI was measured?
> 100 µM

Lab request: please report TGI under test system OVCAR-5 ovarian for S=C(Nc1ccc2c(c1)oc1ccccc12)c1cccs1
> 100 µM

Look up TGI with OVCAR-5 ovarian for this compound: CCN(CC)CC(O)COc1c(Br)c(Br)c(Br)c2c1OC(C)(C)C2 (stereo unspecified)
23.8 µM

Hi! What's the reported TGI for COc1ccc2[nH]c3c4c(cc(-c5ccccc5)c3c2c1)C(=O)N(c1ccccc1)C4=O on OVCAR-5 ovarian?
> 100 µM

Param readout = TGI; param system = OVCAR-5 ovarian; param query = Cc1ccc(C(=O)N2CCCCC2)cc1N=NN(C)C ; response: value
> 100 µM

For OVCAR-5 ovarian, provide TGI of O=c1c(O)cc2c(O)oc3c(=O)c(O)c(O)c4c(O)oc1c2c43 please.
> 100 µM

----------
system: SNB-78 CNS; experiment: NCI tumour cell line growth inhibition, 48 h
quantity measured: TGI (µM)
Give the quantity in µM, number only.

See these solved cases before continuing.
1. CC(=O)OCC1OC([Se-])C(OC(C)=O)C(OC(C)=O)C1OC(C)=O.N#CCC[PH+](CCC#N)CCC#N.[Au+] (centres undefined) ... 79.3
2. CC(C)(CN1CCCCC1)C(=O)CC(SCCN)c1ccc(Cl)cc1 (centres undefined) ... 8.9
3. O=C(CCN1CCC(CCO)CC1)Nc1ccc2c(c1)C(=O)c1ccc(NC(=O)CCN3CCC(CCO)CC3)cc1C2=O ... 21.6

Next:
I am curious: what TGI value has been reported for O=C(O)c1ccc(C(=O)O)c(C(=O)O)c1.[NH-]C1CCCCC1[NH-].[Pt+2] ?
99.9

----------
system: PC-3 prostate; assay: NCI tumour cell line growth inhibition, 48 h
quantity measured: log10 of TGI (log10 of the value in µM)
Plainly stated, the numbers are log10 of TGI given in µM.

Some solved cases for reference:
1. O=C1Nc2ccccc2/C1=C\c1c(-c2ccccc2)nc2n1CCS2 ... 1.68
2. O=C(NS(=O)(=O)c1ccc(NC[C@H]2COCCO2)c([N+](=O)[O-])c1)c1ccc(N2CCN(CC3=C(c4ccc(Cl)cc4)CC4(CCC4)CC3)CC2)cc1Oc1cnc2[nH]ccc2c1 ... 1.13
3. Cc1cc(C)c(S(=O)(=O)N(CCCN)OCCON(CCCN)S(=O)(=O)c2c(C)cc(C)cc2C)c(C)c1 ... 0.60
4. Cc1ccc(NC(=O)c2nc(S(C)(=O)=O)oc2-c2ccc(F)cc2)cc1Nc1ccc2ncn(C)c(=O)c2c1 ... 0.65

Return reported log10 of TGI; argument: COc1ccc(C2CC(c3ccc4ccccc4c3)=NN2c2nc(O)c(C3=c4cc(OC)ccc4=NC3=O)s2)cc1 (stereo unspecified)
-0.48

Can you look up the measured log10 of TGI of O=C(/C=C/c1nnc2n(Cc3ccccc3)c(=O)c3c4c(sc3n12)CCCC4)c1ccccc1 for me?
0.65

Can you share its log10 of TGI? I mean this compound: CCCCN(CC)CCCCCCCCCCN1CCCc2cc(OC)ccc21
1.10

Reported log10 of TGI for Cc1ccc(S(=O)(=O)ON2C(=O)c3c(N)c(C#N)c(-c4ccccc4)c(-c4ccccc4)c3C2=O)cc1 : what is it?
1.51

I have this compound here, C#C[C@]1(O)[C@@H](CO)O[C@@H](n2ccc(N)nc2=O)[C@@H]1O , and I need its recorded log10 of TGI.
-0.12
